Task for the reader: assign each of the following molecules its reported S/N.
biological target: human GLP1R (Homo sapiens); assay: Luciferase reporter assay, HEK293/CRE-Luc/hGLP1R (Example 17); format: cell-based; set-up: engineered to express full-length human GLP1R, cynomolgus GLP1R; expressed in transfected cells; host or cells: HEK293/CRE-Luc; conditions: HEK293/CRE-Luc/hGLP1R; highest RLU / RLU of untreated wells
Sequence (P43220 24-463): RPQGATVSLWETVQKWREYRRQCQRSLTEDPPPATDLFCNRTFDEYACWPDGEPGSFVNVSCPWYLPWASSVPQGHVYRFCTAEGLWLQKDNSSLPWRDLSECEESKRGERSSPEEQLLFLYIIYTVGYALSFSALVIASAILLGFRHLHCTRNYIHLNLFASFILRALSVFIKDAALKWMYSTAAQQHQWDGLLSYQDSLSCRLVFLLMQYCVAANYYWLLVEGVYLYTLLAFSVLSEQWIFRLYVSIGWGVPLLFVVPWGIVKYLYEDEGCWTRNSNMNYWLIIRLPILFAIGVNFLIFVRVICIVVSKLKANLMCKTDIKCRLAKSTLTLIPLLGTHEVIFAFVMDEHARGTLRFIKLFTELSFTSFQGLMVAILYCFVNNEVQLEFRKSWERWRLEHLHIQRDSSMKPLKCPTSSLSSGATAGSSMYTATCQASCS
Where a SMILES comes first, the peptide text is derived from it. [ ]: non-standard residue; d: D form. The star is where a group is joined. Bip(2'-Et,4'-O(CH2)4NH2) = CCc1cc(OCCCCN)ccc1-c1ccc(C[C@H](N)C(=O)O)cc1; Nva(5-(3,5-Me2Ph)) = Cc1cc(C)cc(CCC[C@H](N)C(=O)O)c1; Ala(1H-tetrazol-5-yl) = N[C@@H](Cc1nnn[nH]1)C(=O)O; αMePhe(2-F) = C[C@](N)(Cc1ccccc1F)C(=O)O; X8 = O=C([C@H]1CCN(CCc2cnc[nH]2)C1)*; X1 = O=C(CCCCCc1cnc[nH]1)*; X4 = CC(C)(C(=O)O)C(=O)*

{"Molecule": "CCc1cc(OCCCCNC(=O)[C@H](CO)NC(=O)CNC(=O)CNC(=O)CNC(=O)CN)ccc1-c1ccc(C[C@H](NC(=O)[C@H](CC(=O)O)NC(=O)[C@H](CO)NC(=O)[C@@H](NC(=O)[C@](C)(Cc2ccccc2F)NC(=O)[C@@H](NC(=O)CNC(=O)[C@H](Cc2nn[nH]n2)NC(=O)C(C)(C)C(=O)NCCc2cnc[nH]2)[C@@H](C)O)[C@@H](C)O)C(=O)N[C@@H](CCCc2cc(C)cc(C)c2)C(N)=O)cc1", "S/N": 282.1}

Value sought for every listed molecule: S/N.
1. CCc1cc(OCCCCN)ccc1-c1ccc(C[C@H](NC(=O)[C@H](CC(=O)O)NC(=O)[C@H](CO)NC(=O)[C@@H](NC(=O)[C@](C)(Cc2ccccc2F)NC(=O)[C@@H](NC(=O)CNC(=O)[C@H](Cc2nn[nH]n2)NC(=O)[C@H]2CCN(CCc3cnc[nH]3)C2)[C@@H](C)O)[C@@H](C)O)C(=O)N[C@@H](CCCc2cc(C)cc(C)c2)C(N)=O)cc1 [P16] (X8-[Ala(1H-tetrazol-5-yl)]GT[αMePhe(2-F)]TSD[Bip(2'-Et,4'-O(CH2)4NH2)][Nva(5-(3,5-Me2Ph))]-NH2)
2. CCc1cc(OCCCCN)ccc1-c1ccc(C[C@H](NC(=O)[C@H](CC(=O)O)NC(=O)[C@H](CO)NC(=O)[C@@H](NC(=O)[C@](C)(Cc2ccccc2F)NC(=O)[C@@H](NC(=O)CNC(=O)[C@H](Cc2nn[nH]n2)NC(=O)C(C)(C)C(=O)O)[C@@H](C)O)[C@@H](C)O)C(=O)N[C@@H](CCCc2cc(C)cc(C)c2)C(N)=O)cc1 [P3] (X4-[Ala(1H-tetrazol-5-yl)]GT[αMePhe(2-F)]TSD[Bip(2'-Et,4'-O(CH2)4NH2)][Nva(5-(3,5-Me2Ph))]-NH2)
3. CCc1cc(OCCCCN)ccc1-c1ccc(C[C@H](NC(=O)[C@H](CC(=O)O)NC(=O)[C@H](CO)NC(=O)[C@@H](NC(=O)[C@](C)(Cc2ccccc2F)NC(=O)[C@@H](NC(=O)CNC(=O)[C@H](Cc2nn[nH]n2)NC(=O)CCCCCc2cnc[nH]2)[C@@H](C)O)[C@@H](C)O)C(=O)N[C@@H](CCCc2cc(C)cc(C)c2)C(N)=O)cc1 [P11] (X1-[Ala(1H-tetrazol-5-yl)]GT[αMePhe(2-F)]TSD[Bip(2'-Et,4'-O(CH2)4NH2)][Nva(5-(3,5-Me2Ph))]-NH2)
4. CCc1cc(OCCCCN)ccc1-c1ccc(C[C@H](NC(=O)[C@H](CC(=O)O)NC(=O)[C@H](CO)NC(=O)[C@@H](NC(=O)[C@](C)(Cc2ccccc2F)NC(=O)[C@@H](NC(=O)CNC(=O)[C@H](Cc2nn[nH]n2)NC(=O)[C@H](C)NC(=O)[C@H](Cc2c[nH]cn2)NC(=O)[C@@H](N)CCC(N)=O)[C@@H](C)O)[C@@H](C)O)C(=O)N[C@@H](CCCc2cc(C)cc(C)c2)C(N)=O)cc1 [P13] (H-QHA[Ala(1H-tetrazol-5-yl)]GT[αMePhe(2-F)]TSD[Bip(2'-Et,4'-O(CH2)4NH2)][Nva(5-(3,5-Me2Ph))]-NH2)

55.1
46.3
54.8
69.5
